# method summary: Cmax in healthy human at 150 mg, po administered as single dose by HPLC-tandem mass spectrometry under fed conditions
# Format: ADME, organism-based
# Parameters: dose 150 mg, route oral
# condition info: in vivo
observed property: Cmax (ng/mL)
One number for each entry, in ng/mL.

- molecule: "CCOC(=O)C1=C[C@@H](OC(CC)CC)[C@H](NC(C)=O)[C@@H](N)C1"
  unit text: "ng/mL"
  Cmax: 101

We next turn to a different molecule, shown below.
Quick one: Cmax for CCC(CC)O[C@@H]1C=C(C(=O)O)C[C@H](N)[C@H]1NC(C)=O [OSELTAMIVIR CARBOXYLATE] ? 441

----------
# method summary: Terminal half life in healthy human at 150 mg, po administered as single dose by HPLC-tandem mass spectrometry under fed conditions
# Assay type: ADME, organism-based
# condition info: in vivo, read-out: beta t1/2 (converted)
observed property: half-life (h)
One number for each entry, in h.

Value sought for every listed molecule: half-life.
1. CCOC(=O)C1=C[C@@H](OC(CC)CC)[C@H](NC(C)=O)[C@@H](N)C1
2. CCC(CC)O[C@@H]1C=C(C(=O)O)C[C@H](N)[C@H]1NC(C)=O [OSELTAMIVIR CARBOXYLATE]

1. 2.15
2. 8.2

----------
For each of the compounds below, state its Cmax.
# method summary: Cmax in juvenile breast-fed Sprague-Dawley rat at 30 mg/kg, po administered as water solution by HPLC-tandem mass spectrometry
# Type: ADME, organism-based
# Parameters: dose 30 mg/kg, route oral
# condition info: in vivo
Answers are plain numbers, in ng/mL.

- compound: "CCOC(=O)C1=C[C@@H](OC(CC)CC)[C@H](NC(C)=O)[C@@H](N)C1"
  unit text: "ng/mL"
  experimental result: 6140

Now examine the next entry.
Cmax for CCC(CC)O[C@@H]1C=C(C(=O)O)C[C@H](N)[C@H]1NC(C)=O [OSELTAMIVIR CARBOXYLATE] ? 1500
